Test: LD50 in a mouse
Settings: in vivo, read-out: dosage reaching the LD50 limit
From the text: The upper limit of the amount of the composition of the present invention will depend upon how the extract is made and may be determined by the levels at which toxicity or irritation becomes an issue. Thus, for surface cleansers, very high concentrations can be employed, whereas for skin cleansers, oral care or other products used for direct contact with humans or animals, lower concentrations will be desirable to avoid irritation or toxicity issues. […]
LD50 values, listed per item
Enter your answer as a number in mg/kg; do not include the unit.

>  <Molecule>
O=C1C=CC2(CCC23C=CC(=O)O3)O1 (centres unmarked)

>  <LD50 [mg/kg]>
150

$$$$

Next, consider the following molecule.
Suppose we examine the molecule C=C1C=CC(=O)O1 ; what LD50 value has been reported? 190
